Molecular target: T1, human IL-13 variant (R130Q) (human, UniProt P35225 35-146)
T1 construct: called R110Q in the assay descriptions (mature numbering); also called h IL-13v; hIL-13v
T1 sequence (P35225 35-146 limits assumed, stated change not applied): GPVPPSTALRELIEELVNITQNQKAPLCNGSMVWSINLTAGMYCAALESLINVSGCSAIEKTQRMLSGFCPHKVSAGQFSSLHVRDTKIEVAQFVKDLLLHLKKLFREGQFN
Assay: SPR (Biacore), mAb captured, IL-13 as analyte
recorded-endpoint: pKd
Hey, just a heads up that pKd is the negative log base 10 of the concentration in molar.

I have this binder here, 1B6 (antibody, V domains shown) VH: QVQLKESGPGLVAPSQSLSITCTVSGFSLTGYGVNWVRQPPGKGLEWLGMIWGDERIDYNSALKSRLSITKDNSKSQVFLKMNSLQTDDTGRYFCARDGYFPYAMDYWGQGTSVTVSS VL: NIVLTQSPASLAVSLGQRATISCRASETVDSYGKSYLHWYQQKPGQPPKLLIYLASNLESGVPARFSGSGSRTDFTLIIDPVEADDAATYYCQQNNEGPRTFGGGTKLEIKR , and I need its recorded pKd. 9.68

Same thing, different binder: 9C11 (antibody, V domains shown) VH: QVRLQQPGAELVRPGASVKLSCKASGYTFTSSWIHWVNQRPGQGLEWIGMIHPSDSETRLNQKFKDKATLTVDKSSSTAYMQLSSPTSEDSAVYYCASTATDFDYWGQGTTLTVSS VL: DVVLTQTPLSLPVNIGDQASISCRSTQTLLNSDGFTYLDWYLQKPGQSPQLLIYLVSNRFSGVPDRFSGSGSGTDFTLKISRVEAEDLGVYYCFQNNYLPLTFGAGTKLELKR 10.04

Next binder: 4A8 (antibody, V domains shown) VH: EVQLQQSGAEFVRPGALVKLSCKASGFNIKDYYMYWVKQRPEQGLEWIGRIDPENGNTIYDPKFQGKASITGDTSSNTAYLQLSSLTSEDTAVYYCARYAYYGPFDYWGQGTTLTVSS VL: QAVVTQESALTTSPGETVTLTCRSSIGTVTTNNYANWVQEKPDHLFTGLIGSTNNRAPGVPARFSGSLIGDKAALTITGAQTEDEAIYFCALWYSNHWVFGGGTKLTVLG 9.80
